We use 30 °C as the dividing line for flash point: on or above the line is 1, below is -1.

Reference set (2 entries):
CCO[Si](CCCS)(OCC)OCC [[3-(mercapto)propyl]triethoxysilane] : 1
CCC[Si](OC)(OC)OC : -1

// inclusive: flash point at least 30 °C? input: `Cl[Si](Cl)(Cl)CCc1ccccc1`
1

Say whether `C[Si](C)(C)N[Si](C)(C)C` shows flash point of 30 °C or more.
-1

Kindly determine if flash point recorded for `CCO[Si](C)(OCC)OCC` is above or exactly 30 °C.
-1

---

flash point values for the molecules below.
The response must be a number in °C with no trailing unit.

Answered examples (4):
CC1=CCCC1 : -17
O=C=Nc1ccccc1 [phenyl isocyanate] : 51
CCC(=O)O : 51
CCCC(=O)CC : 35

Provide measured flash point value, entry: `CCCCCCCCCO`
98

Given the molecule `C1=CCC=CC1` , write its reported flash point.
-6
